TGT: T1, human LAG-3 on cells (HEK293-hLAG-3 stable cell line) (human, UniProt P18627 23-525)
T1 sequence: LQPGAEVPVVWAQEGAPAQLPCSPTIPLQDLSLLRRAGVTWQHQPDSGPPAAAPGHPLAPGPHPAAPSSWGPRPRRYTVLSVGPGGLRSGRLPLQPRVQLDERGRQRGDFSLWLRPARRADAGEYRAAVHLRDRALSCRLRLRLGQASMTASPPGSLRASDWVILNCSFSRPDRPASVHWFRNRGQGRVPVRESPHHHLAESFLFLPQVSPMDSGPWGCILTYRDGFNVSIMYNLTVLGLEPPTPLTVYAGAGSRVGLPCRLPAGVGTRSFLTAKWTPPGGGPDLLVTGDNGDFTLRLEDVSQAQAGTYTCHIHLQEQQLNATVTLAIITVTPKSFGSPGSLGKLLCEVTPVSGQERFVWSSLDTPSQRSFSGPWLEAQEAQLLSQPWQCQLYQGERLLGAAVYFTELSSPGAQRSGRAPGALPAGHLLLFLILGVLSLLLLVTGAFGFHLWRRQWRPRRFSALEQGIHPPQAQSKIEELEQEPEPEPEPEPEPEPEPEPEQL
TEST_SUMMARY: cell-based or functional assay
ATTRIBUTE_MEASURED: IL-2 production, antigen-specific T lymphocyte stimulation test, 0.08 ug/ml, N = 2 (pg/mL)
Express the result in pg/mL but write the number alone.

[in] Field request: IL-2 production, antigen-specific T lymphocyte stimulation test, 0.08 ug/ml, N = 2 | item: 409B11E12 mouse-human chimeric antibody (antibody, V domains shown, also called mAb104-409B11E12) VH: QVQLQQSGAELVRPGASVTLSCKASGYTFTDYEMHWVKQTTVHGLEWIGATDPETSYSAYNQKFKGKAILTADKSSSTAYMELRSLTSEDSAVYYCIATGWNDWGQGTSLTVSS VL: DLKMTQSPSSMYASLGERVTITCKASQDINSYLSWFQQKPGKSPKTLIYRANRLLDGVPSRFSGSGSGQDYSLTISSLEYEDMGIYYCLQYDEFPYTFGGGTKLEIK
[out] 555

Provenance of the data: patent US20210155689A1
